Measured inhibition at 10 µM by item
- Tested on: Jurkat E6-1 human T-cell lymphoma
- methodSummary: CCK-8 proliferation inhibition, Jurkat E6-1
- Format: cell-based
- testContext: Homo sapiens, Jurkat E6.1, 10 μM
valueType: inhibition at 10 µM (%)

- compound: "COc1ccc(/C=C/C(=O)NCc2ccc(C(=O)Nc3cccnc3N)cc2)cc1 [V-29]"
  valueType: "inhibition at 10 µM"
  measuredNumber: 49.3
- compound: "COc1cccc(/C=C/C(=O)NCc2ccc(C(=O)Nc3ccncc3N)cc2)c1 [V-92]"
  valueType: "inhibition at 10 µM"
  measuredNumber: 87.5
- compound: "Nc1cnccc1NC(=O)c1ccc(CNC(=O)/C=C/c2ccc([N+](=O)[O-])cc2)cc1 [V-38]"
  valueType: "inhibition at 10 µM"
  measuredNumber: 76.9
- compound: "COc1ccc(/C=C/C(=O)NCc2ccc(C(=O)Nc3ccncc3N)cc2)cc1 [V-30]"
  valueType: "inhibition at 10 µM"
  measuredNumber: 83.1

Recorded values, source patent US8889876B2.
